- Test system: Sprague-Dawley rats
- assay_details: Rat cold ethanol tail-flick test
- Type: in vivo
- particulars: 25 micromole per kg, intramuscularly, in sesame oil; duration in days
property: % Analgesic effect 10%
Please state the number and follow it with the unit.

[[record]]
compound = "CCCCCCCCCC(=O)Oc1ccc2c3c1O[C@H]1[C@@H](O)CC[C@@]4(O)[C@@H](C2)N(CC2CCC2)CC[C@]314 [nalbuphine decanoate]"
property = "% Analgesic effect 10%"
result = "8.2 D"


INPUT: Look up % Analgesic effect 10% for this compound: CC(C)(C)C(=O)Oc1ccc2c3c1O[C@H]1[C@@H](O)CC[C@@]4(O)[C@@H](C2)N(CC2CCC2)CC[C@]314 [nalbuphine pivalate]
OUTPUT: 3.8 D

INPUT: And what about the compound CCCCCCC(=O)Oc1ccc2c3c1O[C@H]1[C@@H](O)CC[C@@]4(O)[C@@H](C2)N(CC2CCC2)CC[C@]314 [nalbuphine enanthate] ?
OUTPUT: 3.6 D

INPUT: And what about the compound O=C(Oc1ccc2c3c1O[C@H]1[C@@H](O)CC[C@@]4(O)[C@@H](C2)N(CC2CCC2)CC[C@]314)c1ccccc1 [nalbuphine benzoate] ?
OUTPUT: 4.0 D

These data points were gathered from patent EP0615756B1.
